Consider the following variants and their measured unfolding enthalpy (calorimetric) readings.
B1: Lysozyme C, P61626 (parent)
chain: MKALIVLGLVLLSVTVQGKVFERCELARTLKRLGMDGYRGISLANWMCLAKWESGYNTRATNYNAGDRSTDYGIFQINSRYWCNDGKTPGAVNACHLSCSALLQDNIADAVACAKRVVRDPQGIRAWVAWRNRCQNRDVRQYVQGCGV

Variants of: B1
Settings: Homo sapiens; pH 2.7; Thermal; DSC; glycine 0.05 M; reversible: yes; structure 1LZ1; whole UniProt chain shown
Lab book: enter the figure in kcal/mol, no units written.

[[record]]
sequence_content = "MKALIVLGLVLLSVTVQGKVFERCELARTLKRLGMDGYRGISLANWMCLAKWESGYNTRATNYNAGDRSTDYGIFQINSRYWCNDGKTPGAVNACGLSCSALLQDNIADAVACAKRVVRDPQGIRAWVAWRNRCQNRDVRQYVQGCGV [H96G]"
test_result = 109

[[record]]
sequence_content = "MKALIVLGLVLLSVTVQGKVFERCELARTLKRLGMDGYRGISLANWMCLAKWESGYNTRATNYNAGDRSTDYGIFQINSRYWCNDGKTPGAVNACHLSCSALLQDNIADAVACMKRVVRDPQGIRAWVAWRNRCQNRDVRQYVQGCGV [A114M]"
test_result = 98.7

[[record]]
sequence_content = "MKALIVLGLVLLSVTVQGKVFERCELARTLKRLGMDGYRGISLANWMCLAKWLSGYNTRATNYNAGDRSTDYGIFQINSRYWCNDGKTPGAVNACHLSCSALLQDNIADAVACAKRVVRDPQGIRAWVAWRNRCQNRDVRQYVQGCGV [E53L]"
test_result = 99


Query: // returns reported unfolding enthalpy (calorimetric) for input MKALIVLGLVLLSVTVQGKVFERCELARTLKRLGMDGYRGISLANWMCLAKWESGYNTRATNYNAGDRSTDYGIFQINSRYWCNDGKTPGAVNACHLSCSALLQDNIADAVACAKRVFRDPQGIRAWVAWRNRCQNRDVRQYVQGCGV [V118F]
Reply: 87.2

Query: // returns reported unfolding enthalpy (calorimetric) for input MKALIVLGLVLLSVTVQGKVFERCELARTLKRLGMDGYRGISLANWMCLAKWESQYNTRATNYNAGDRSTDYGIFQINSRYWCNDGKTPGAVNACHLSCSALLQDNIADAVACAKRVVRDPQGIRAWVAWRNRCQNRDVRQYVQGCGV [G55Q]
Reply: 108

Query: // returns reported unfolding enthalpy (calorimetric) for input MKALIVLGLVLLSVTVQGKVFERCELARTLKRLGMDGYRGISLANWMCLLKWESGYNTRATNYNAGDRSTDYGIFQINSRYWCNDGKTPGAVNACHLSCSALLQDNIADAVACAKRVVRDPQGIRAWVAWRNRCQNRDVRQYVQGCGV [A50L]
Reply: 98.2

Query: // returns reported unfolding enthalpy (calorimetric) for input MKALIVLGLVLLSVTVQGKVFERCELARTLKRLGMDGYRGISLANWMCLAKWESGYNTRATNYNAGDRSTDYGIFQINSRYWCNDGKTPGASNACHLSCSALLQDNIADAVACAKRVVRDPQGIRAWVAWRNRCQNRDVRQYVQGCGV [V92S]
Reply: 108

Query: // returns reported unfolding enthalpy (calorimetric) for input MKALIVLGLVLLSVTVQGKVFERCELARTLKRLGMDGYRGISLANWMCLAKWESGYNTRATNYNAGDRSTDYGIFGINSRYWCNDGKTPGAVNACHLSCSALLQDNIADAVACAKRVVRDPQGIRAWVAWRNRCQNRDVRQYVQGCGV [Q76G]
Reply: 109

Query: // returns reported unfolding enthalpy (calorimetric) for input MKALIVLGLVLLSVTVQGKVFERCELARTLKRLGMDGYRGISLANWMCLAKWESGYNTRATNYNAGDGSTDYGIFQINSRYWCNDGKTPGAVNACHLSCSALLQDNIADAVACAKRVVRDPQGIRAWVAWRNRCQNRDVRQYVQGCGV [R68G]
Reply: 100
